Conditions: in acetonitrile, 278.15 K
quantityMeasured: solubility (mole fraction)
I'd appreciate a reply containing only the number, no unit.

Consider the compound Cc1c(OCC(F)(F)F)ccnc1CS(=O)c1nc2ccccc2[nH]1 (stereo unspecified) and give its measured solubility (mole fraction).
0.00324

---

Details: in isopropanol, 278.15 K
quantityMeasured: solubility (mole fraction)
No unit in the answer, please; the number alone is enough.

// solubility (mole fraction) lookup, key: Cc1c(OCC(F)(F)F)ccnc1CS(=O)c1nc2ccccc2[nH]1 (stereo unspecified)
0.00417

---

Settings: in acetonitrile, 313.15 K
quantityMeasured: solubility (mole fraction)
# output: bare number, no unit

Recorded solubility (mole fraction) for Cc1c(OCC(F)(F)F)ccnc1CS(=O)c1nc2ccccc2[nH]1 (stereo unspecified) , please?
0.015
